# Target desc: T1, LY6G6D cyclic peptide Ac-RDC*YLGDLC*NS-PEG2-3-mercaptopropionate (bridge 3-9 via CH2; not fully specified; printed as Ac-RDC*YLGDLC*NS-PEG2-3-mercaptopropionate)
# T1 construct: Represents the most membrane-proximal stretch of LY6G6D; also called octomer cyclic peptide
# T1 peptide: Ac-RDCYLGDLCNS-{PEG2′-3‑mercaptopropionate}
# Test protocol: flow binding assay on cyclic-peptide beads
Starred links: 1 amine or outer side, 2 acyl side, 3 side chain; linkers in the order of their positions; H or OH if unused. Positions of bridges follow the written chain, without caps; N, C: chain ends. Primed or numbered codes have the meaning given here. PEG2′ = PEG2 spacer at the C-terminus, followed by 3-mercaptopropionate; CH2 = C([*:1])[*:2]

Binder: CB21-522 (antibody, V domains shown, Human Fc formats; monovalent antibody in BLI) VH: EVQLVQSGAEVKKPGASVKVSCKASGYTFTGYFIHWVRQAPGQGLEWMGWINPNSGGTYYAQEFQGRVTMTRDTSISTAYMELIRLRSDDSAVYYCARDISLVGDYWGQGTLVTVSS VL: DVVMTQSPLSLPVTLGQPASISCRSSQSLVYSDGNTYLNWFQQRPGQSPRRLIYKVSNRDSGVPERFSGIGSGTDFTLEISRVEAEDVGVYYCMQGSHWPLTFGGGTKVEIK
binding result: binds
//
Binder: CB21-471 (antibody, V domains shown, Human Fc formats; monovalent antibody in BLI) VH: EVQLVESGGGVVQPGRSLRLSCAASGFTFSSYGMHWVRQVPGKGLEWVAVIWYDGSNKDYVDSVKGRFTISRDNSKNTLYLQMNSLRAEDTAVYYCARPGEGDYWGQGTLVTVSS VL: DIQMTQSPSSLSASVGDRVTITCRASQGIRNDFGWYQQKPGKAPKRLIYGASSLQSGVPSRFSGSGSGTEFTLTISSLQPEDFATYYCLQQNSYPWTFGQGTKVEIK
binding result: binds
//
Binder: CB21-499 (antibody, V domains shown, Human Fc formats; monovalent antibody in BLI) VH: EVQLVESGGGVVQPGRSLRLSCAASGFTFSSYGMHWVRQAPGKGLEWVAVIWYDGSNKDYADSVKGRFTISRDNSKNTLYLQMNSLRAEDTAIYYCARPGEGDYWGQGTLVTVSS VL: DIQMTQSPSSLSASVGDRVTITCRASQGVRNDFGWFQQKPGKAPKRLIYGASSLQSGVPSRFSGSGSGTEFTLTISSLQPEDFATYYCLQQNSYPWTFGQGTKLEIK
binding result: binds
